TEST_SYSTEM: T1, recombinant human c-Met/Fc chimera (R&D systems) (human)
T1 construct: R&D Systems 358-MT/CF, expressed in NS0 cells; also called hc-Met/Fc; hu c-Met/Fc
T1 sequence (chain, as listed by the source mutant limits assumed): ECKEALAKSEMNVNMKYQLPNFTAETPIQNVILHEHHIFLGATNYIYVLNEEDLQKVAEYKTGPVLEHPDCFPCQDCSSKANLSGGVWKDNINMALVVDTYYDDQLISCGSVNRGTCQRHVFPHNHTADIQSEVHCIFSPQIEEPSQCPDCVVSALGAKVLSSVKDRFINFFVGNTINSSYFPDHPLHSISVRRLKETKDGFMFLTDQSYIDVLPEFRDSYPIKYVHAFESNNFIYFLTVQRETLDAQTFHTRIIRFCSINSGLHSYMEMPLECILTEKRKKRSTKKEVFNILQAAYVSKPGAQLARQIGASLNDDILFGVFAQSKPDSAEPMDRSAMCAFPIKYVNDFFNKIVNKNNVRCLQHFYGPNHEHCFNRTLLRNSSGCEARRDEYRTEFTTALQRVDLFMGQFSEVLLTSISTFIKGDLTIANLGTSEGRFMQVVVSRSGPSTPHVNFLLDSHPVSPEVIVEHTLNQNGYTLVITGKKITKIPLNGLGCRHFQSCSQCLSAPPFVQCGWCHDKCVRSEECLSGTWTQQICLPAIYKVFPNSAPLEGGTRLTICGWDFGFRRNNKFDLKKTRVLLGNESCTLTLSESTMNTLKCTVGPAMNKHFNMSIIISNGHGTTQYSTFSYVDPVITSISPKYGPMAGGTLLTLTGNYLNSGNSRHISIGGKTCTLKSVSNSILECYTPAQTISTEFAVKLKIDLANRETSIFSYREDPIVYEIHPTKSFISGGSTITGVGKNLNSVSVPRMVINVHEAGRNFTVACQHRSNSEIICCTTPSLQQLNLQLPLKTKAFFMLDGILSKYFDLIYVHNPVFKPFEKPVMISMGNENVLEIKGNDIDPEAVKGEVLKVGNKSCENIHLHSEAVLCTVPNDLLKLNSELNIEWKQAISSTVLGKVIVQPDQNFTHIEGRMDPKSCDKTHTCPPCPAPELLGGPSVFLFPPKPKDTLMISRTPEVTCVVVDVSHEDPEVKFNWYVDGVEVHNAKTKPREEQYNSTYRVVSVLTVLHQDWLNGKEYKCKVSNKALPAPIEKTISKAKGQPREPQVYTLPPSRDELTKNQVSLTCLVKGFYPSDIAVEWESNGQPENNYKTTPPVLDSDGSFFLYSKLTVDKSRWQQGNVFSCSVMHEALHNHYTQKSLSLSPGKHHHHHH
ASSAY_NAME: modified HGF-competition Alphascreen: 0.4 nM biotinylated HGF, 0.016 nM cMet/Fc
REPORTED_PROPERTY: pIC50
Keep it numeric: pIC50 is minus log10 of the concentration in mol/L.

A007901249 (VHH, 33H10 variant, 3xFLAG-His6 tagged; the entry holds the tag; also called monovalent form of A007901259) VHH: EVQLVESGGGLVQPGGSLRLSCAASGFTFDDYAIGWFRQAPGEERLGVSSISSTYGLTYYADSVKGRFTISSDNSKNTVYLQMNSLRPEDTAVYYCAATPIGLIGLDAYEYDYWGQGTLVTVSS; 10.37
A007901245 (VHH, 33H10 variant, 3xFLAG-His6 tagged; the entry holds the tag; also called monovalent form of A007901255) VHH: EVQLVESGGGLVQPGGSLRLSCAASGFTFDDYAIGWFRQAPGEEREGVSSISSTYGLTYYADSVKGRFTISSDNSKNTVYLQMNSLRPEDTAVYYCAATPIGLIGLDAYEYDYWGQGTLVTVSS; 10.04
A007901250 (VHH, 33H10 variant, 3xFLAG-His6 tagged; the entry holds the tag; also called monovalent form of A007901260) VHH: EVQLVESGGGLVQPGGSLRLSCAASGFAFDDYAIGWFRQAPGEERLGVSSISSTYGLTYYADSVKGRFTISSDNSKNTVYLQMNSLRPEDTAVYYCAATPIGLIGLDAYEYDYWGQGTLVTVSS; 10.46

Kindly consider the entry below.
What does the record list as pIC50 for A007901246 (VHH, 33H10 variant, 3xFLAG-His6 tagged; the entry holds the tag; also called monovalent form of A007901256) VHH: EVQLVESGGGLVQPGGSLRLSCAASGFAFDDYAIGWFRQAPGEEREGVSSISSTYGLTYYADSVKGRFTISSDNSKNTVYLQMNSLRPEDTAVYYCAATPIGLIGLDAYEYDYWGQGTLVTVSS ?
10.32

// provenance: patent US20120244164A1
